# assayed_system: Angiotensin-converting enzyme (Oryctolagus cuniculus)
# Sequence (P12822 whole entry): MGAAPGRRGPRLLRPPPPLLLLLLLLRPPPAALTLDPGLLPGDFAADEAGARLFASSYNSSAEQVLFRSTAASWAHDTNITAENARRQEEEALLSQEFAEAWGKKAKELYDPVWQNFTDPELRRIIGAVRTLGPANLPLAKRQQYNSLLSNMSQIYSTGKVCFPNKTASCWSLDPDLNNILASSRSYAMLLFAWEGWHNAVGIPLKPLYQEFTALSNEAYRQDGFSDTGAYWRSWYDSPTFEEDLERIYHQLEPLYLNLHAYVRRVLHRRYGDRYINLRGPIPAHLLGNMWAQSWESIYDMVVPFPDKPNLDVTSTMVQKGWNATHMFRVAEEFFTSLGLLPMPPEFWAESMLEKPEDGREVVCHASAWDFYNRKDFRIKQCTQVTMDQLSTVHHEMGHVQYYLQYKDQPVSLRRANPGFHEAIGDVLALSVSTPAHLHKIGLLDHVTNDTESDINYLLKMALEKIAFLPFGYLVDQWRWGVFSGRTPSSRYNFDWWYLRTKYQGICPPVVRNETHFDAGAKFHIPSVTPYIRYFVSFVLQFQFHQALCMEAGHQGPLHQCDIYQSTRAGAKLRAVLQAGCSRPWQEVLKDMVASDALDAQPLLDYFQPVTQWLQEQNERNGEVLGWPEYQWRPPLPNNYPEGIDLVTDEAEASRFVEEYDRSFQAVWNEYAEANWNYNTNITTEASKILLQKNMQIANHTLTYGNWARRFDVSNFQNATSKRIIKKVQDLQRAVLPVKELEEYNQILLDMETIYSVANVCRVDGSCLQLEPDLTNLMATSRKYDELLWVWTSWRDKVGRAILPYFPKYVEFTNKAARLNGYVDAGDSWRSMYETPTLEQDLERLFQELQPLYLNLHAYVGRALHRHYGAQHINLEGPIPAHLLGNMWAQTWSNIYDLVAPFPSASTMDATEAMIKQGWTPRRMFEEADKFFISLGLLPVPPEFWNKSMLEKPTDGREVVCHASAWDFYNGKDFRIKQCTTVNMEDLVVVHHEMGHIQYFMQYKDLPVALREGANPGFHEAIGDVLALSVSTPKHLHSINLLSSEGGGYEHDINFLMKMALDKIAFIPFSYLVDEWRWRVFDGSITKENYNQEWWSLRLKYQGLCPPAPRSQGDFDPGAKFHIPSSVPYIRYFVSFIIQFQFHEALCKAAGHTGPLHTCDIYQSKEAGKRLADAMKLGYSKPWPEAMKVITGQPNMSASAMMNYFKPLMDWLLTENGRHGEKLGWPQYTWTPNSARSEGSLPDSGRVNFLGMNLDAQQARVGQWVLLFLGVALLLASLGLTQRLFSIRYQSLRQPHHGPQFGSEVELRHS
# assay_explanation: In vitro inhibition of Angiotensin I converting enzyme isolated from rabbit lung extract.
Measured IC50 of individual entries
quantity_measured: IC50 (µM)

{"columns": ["mol", "result_value"],
 "data": [
  ["O=C(N[C@H]1CCCCN([C@@H](Cc2ccccc2)C(=O)O)C1=O)[C@@H](S)Cc1ccccc1", 0.479],
  ["CCC[C@H]1CCC[C@H](NC(=O)[C@@H](S)Cc2ccccc2)C(=O)N1[C@@H](CC)C(=O)O", 0.025],
  ["O=C(O)CN1C(=O)[C@@H](NC(=O)[C@@H](S)Cc2ccccc2)CCC[C@@H]1C1CCCC1", 0.017],
  ["CCC[C@H]1CCC[C@H](NC(=O)[C@@H](S)Cc2ccccc2)C(=O)N1[C@@H](C)C(=O)O", 0.005]
]}

All figures here come from ChEMBL document CHEMBL1129797.
